Assay read-out log10 KL; system under study: Adenosine receptor A1 (Rattus norvegicus).
Sequence (P25099 whole entry): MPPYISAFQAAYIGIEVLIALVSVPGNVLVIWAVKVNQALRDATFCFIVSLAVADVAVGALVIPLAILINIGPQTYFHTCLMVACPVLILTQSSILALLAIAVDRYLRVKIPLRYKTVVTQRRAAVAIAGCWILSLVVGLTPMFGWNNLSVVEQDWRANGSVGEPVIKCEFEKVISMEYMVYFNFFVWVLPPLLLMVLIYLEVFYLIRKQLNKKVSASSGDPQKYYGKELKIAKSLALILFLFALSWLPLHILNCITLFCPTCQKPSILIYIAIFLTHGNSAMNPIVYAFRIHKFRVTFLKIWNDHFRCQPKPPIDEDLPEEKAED
Scale: decimal log of KL, KL in µM.

>>> number("OC[C@H]1O[C@@H](n2cnc3c(NC4CC4)nc(Cl)nc32)C[C@@H]1O")
0.78
>>> number("OC[C@H]1O[C@@H](n2cnc3c(NC4CCCCCCC4)ncnc32)C[C@@H]1O")
0.62
>>> number("OC[C@H]1O[C@@H](n2cnc3c(NC4CCCCCCC4)nc(Cl)nc32)C[C@@H]1O")
0.01
>>> number("OC[C@H]1O[C@@H](n2cnc3c(NC4CCC4)nc(Cl)nc32)C[C@@H]1O")
0.28
>>> number("OC[C@H]1O[C@@H](n2cnc3c(NC4CCCCC4)nc(Cl)nc32)C[C@@H]1O")
0.20

Fill in log10 KL for "OC[C@H]1O[C@@H](n2cnc3c(NC4CCCC4)nc(Cl)nc32)C[C@@H]1O" tested with Adenosine receptor A1 (Rattus norvegicus). -0.10

Provide the reported log10 KL (system: Adenosine receptor A1 (Rattus norvegicus)) for "OC[C@H]1O[C@@H](n2cnc3c(NC4CCCC4)ncnc32)C[C@@H]1O" 0.55

Give log10 KL; test system Adenosine receptor A1 (Rattus norvegicus); molecule "OC[C@H]1O[C@@H](n2cnc3c(NC4CCCCC4)ncnc32)C[C@@H]1O" 0.87

Please indicate recorded log10 KL of "OC[C@H]1O[C@@H](n2cnc3c(NC4CCCCCC4)ncnc32)C[C@@H]1O" measured with Adenosine receptor A1 (Rattus norvegicus). 0.87

Report measured log10 KL on Adenosine receptor A1 (Rattus norvegicus); entry: "OC[C@H]1O[C@@H](n2cnc3c(NC4CCC4)ncnc32)C[C@@H]1O" 0.92

Fetch value of log10 KL on Adenosine receptor A1 (Rattus norvegicus) for "OC[C@H]1O[C@@H](n2cnc3c(NC4CCCCCC4)nc(Cl)nc32)C[C@@H]1O" . -0.12

---

Each item that follows carries a reported pEC50.
# tested target: UniProt:P25099
# protocol text: Stimulation of [35S]GTP-gamma-S, binding to rat brain membranes by adenosine A1 receptor activation
// scale note: pEC50 = -log10(conc_M); give the bare number

>>> number("OC[C@H]1O[C@@H](n2cnc3c(NC4CCCCC4)ncnc32)C[C@@H]1O")
5.02
>>> number("OC[C@H]1O[C@@H](n2cnc3c(NC4CCCCCC4)ncnc32)C[C@@H]1O")
4.86
>>> number("OC[C@H]1OC(n2cnc3c(NC4CCCCCC4)ccnc32)[C@H](O)[C@@H]1O (stereo not given in full)")
5.20
>>> number("OC[C@H]1OC(n2cnc3c(NC4CCCCCC4)nc(Cl)nc32)[C@H](O)[C@@H]1O (stereo not given in full)")
6.37
>>> number("OC[C@H]1O[C@@H](n2cnc3c(NC4CCC4)ncnc32)C[C@@H]1O")
5.29

Fill in reported pEC50 for this entry: OC[C@H]1O[C@@H](n2cnc3c(NC4CCCCCC4)cc(Cl)nc32)[C@@H](O)C1O (stereo not given in full) 5.18

State its pEC50 for this molecule: "OC[C@H]1O[C@@H](n2cnc3c(NC4CCC4)nc(Cl)nc32)C[C@@H]1O" 5.43

Recall and state the measured pEC50 for "OC[C@H]1O[C@@H](n2cnc3c(NC4CCCC4)ncnc32)C[C@@H]1O" . 5.24

Write down pEC50 measured for item "OC[C@H]1O[C@@H](n2cnc3c(NC4CC4)ccnc32)[C@H](O)[C@@H]1O" 5.82

Give pEC50 for "OC[C@H]1O[C@@H](n2cnc3c(NC4CC4)nc(Cl)nc32)C[C@@H]1O" 5.21
